Target: SARS-CoV-2 Spike RBD, original (Wuhan) strain (SARS-CoV-2, UniProt P0DTC2)
Test: SPR
This section presents binders with their documented pKd values.
Scale explanation: pKd corresponds to minus log10 of a concentration expressed in moles per litre.

Field: example entries. Status: answers known.
>  <binder>
DXP-604 (IgG1) (antibody, V domains shown) VH: EVQLVESGGGLIQPGGSLRLSCAASGIIVSSNYMTWVRQAPGKGLEWVSVIYSGGSTFYADSVKGRFTISRDNSKNTLYLQMSSLRAEDTAVYYCARDLGPYGMDVWGQGTTVTVSS VL: DIQLTQSPSFLSASVGDRVTITCRASQGISSDLAWYQQKPGKAPNLLIYAASTLQSGVPSRFSGSGSGTEFTLTISSLQPEDFATYYCQQLNSDLYTFGQGTKLEIK

>  <pKd>
9.67

$$$$
>  <binder>
BD55-5840 (IgG1) (antibody, V domains shown) VH: VQLAQSGSELRKPGASVKVSCDTSGHSFTSNAIHWVRQAPGQGLEWMGWINTDTGTPTYAQGFTGRFVFSLDTSARTAYLQISSLKADDTAVFYCARERDYSDYFFDYWGQGTLVTVSS VL: EVVMTQSPASLSVSPGERATLSCRARASLGISTDLAWYQQRPGQAPRLLIYGASTRATGIPARFSGSGSGTEFTLTISSLQSEDSAVYYCQQYSNWPLTFGGGTKVEIK

>  <pKd>
10.12

$$$$
>  <binder>
REGN10987 (IgG1) (antibody, V domains shown) VH: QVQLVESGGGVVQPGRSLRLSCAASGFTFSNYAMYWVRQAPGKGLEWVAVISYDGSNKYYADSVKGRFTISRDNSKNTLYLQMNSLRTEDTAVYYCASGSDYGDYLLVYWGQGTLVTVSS VL: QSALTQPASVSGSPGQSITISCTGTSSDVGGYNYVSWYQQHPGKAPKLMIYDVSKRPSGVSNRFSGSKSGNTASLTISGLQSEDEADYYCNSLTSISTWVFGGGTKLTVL

>  <pKd>
7.84

$$$$

Turning now to a further binder:
// field: pKd; key: LY-CoV1404 (IgG1) (antibody, V domains shown) VH: QITLKESGPTLVKPTQTLTLTCTFSGFSLSISGVGVGWLRQPPGKALEWLALIYWDDDKRYSPSLKSRLTISKDTSKNQVVLKMTNIDPVDTATYYCAHHSISTIFDHWGQGTLVTVSS VL: QSALTQPASVSGSPGQSITISCTATSSDVGDYNYVSWYQQHPGKAPKLMIFEVSDRPSGISNRFSGSKSGNTASLTISGLQAEDEADYYCSSYTTSSAVFGGGTKLTVL ; value = 9.01
